The origin of these recorded values is PubChem BioAssay AID1159580.

assay: chemical genetic growth profiling, strain panel (AID 1159580);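 note: tested at 20 µM; growth read once vehicle control cultures reached saturation at 30 °C; 1 = growth at the plate median or of vehicle wells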; settings: S. cerevisiae deletion strains, growth OD, locus YDR392W, strain spt3
About 2,000 (36%) of roughly 5,500 compounds were called active. About 18% were inconclusive and are not listed. Cut-off read from the data, not from the text of the source: active = normalized growth mostly below about 0.91 (no sharp cut-off); inconclusive = no clear call, values can overlap the other calls; inactive = mostly above about 0.92. Some of the results follow.
Pick from active, inactive when you respond.

>>> print(df.to_string())
                                   compound  assigned_label
0  Cc1ccccc1C(OCCN(C)C)c1ccccc1 (stereo not drawn)        inactive
1  COc1ccc(OC)c(C(O)CNC(=O)CN)c1 (stereo not drawn)        inactive
2  CN(C)CCOC(c1ccc(Cl)cc1)c1ccccn1 (stereo not drawn)        inactive
3  CC[C@@]1(O)C[C@H](O[C@H]2C[C@H](N(C)C)[C@H](O)[C@H](C)O2)c2c(cc3c(c2O)C(=O)c2c(O)ccc(O)c2C3=O)[C@H]1C(=O)OC        inactive
4  CC[C@@]1(O)C[C@H](O[C@H]2C[C@H](N(C)C)[C@H](O)[C@H](C)O2)c2c(cc3c(c2O)C(=O)c2c(O)cccc2C3=O)[C@H]1C(=O)OC          active
5  Oc1ccc2c(c1)O[C@H](c1ccc(O)c(O)c1)[C@@H](O)C2        inactive

Query: Kindly provide the recorded test outcome for the following compound: Oc1cc(O)c2c(c1)O[C@H](c1ccc(O)c(O)c1)[C@@H](O)C2
Reply: inactive

Query: Kindly provide the recorded test outcome for the following compound: Clc1ccc(C(OCCN2CCCCC2)c2ccccc2)cc1 (stereo not drawn)
Reply: inactive

Query: Kindly provide the recorded test outcome for the following compound: Cc1[nH]c2ccccc2c1CN(C)C
Reply: inactive

Query: Kindly provide the recorded test outcome for the following compound: C[C@]12CCC(=O)C=C1C=CC1C2CC[C@@]2(C)C1CC[C@@]2(O)CCC(=O)O (stereo partly drawn)
Reply: inactive

Query: Kindly provide the recorded test outcome for the following compound: C=CC[C@]1(O)CCC2C3CCC4=CC(=O)CCC4=C3C=C[C@@]21C (stereo partly drawn)
Reply: active

Query: Kindly provide the recorded test outcome for the following compound: COC(=O)/C=C/C(C)=C/C=C/C(C)=C/C=C/C=C(C)/C=C/C=C(C)/C=C/C(=O)O
Reply: inactive

Query: Kindly provide the recorded test outcome for the following compound: C[n+]1c2cc(N)ccc2cc2ccc(N)cc21
Reply: active

====

assay: chemical genetic growth profiling, strain panel (AID 1159580); settings: S. cerevisiae deletion strains, growth OD, locus YOR184W, strain ser1, stronger effect = lower value
Screen size: about 5,500 compounds; about 2,000 (36%) were called active. Roughly 18% stayed inconclusive and do not appear here. Some of the results follow.
RECORDED_ENDPOINT: normalized growth
Please state the value as a number alone, without comment.

Query: Record request: normalized growth value, item Clc1ccc(C(OCCN2CCCCC2)c2ccccc2)cc1 (stereo not given)
Reply: 1.04

Query: Record request: normalized growth value, item C[C@@H]1O[C@@H](O[C@H]2[C@H](Oc3cc(O)c4c(=O)cc(-c5ccc(O)cc5)oc4c3)O[C@H](CO)[C@@H](O)[C@@H]2O)[C@H](O)[C@H](O)[C@H]1O
Reply: 0.993

====

assay: chemical genetic growth profiling, strain panel (AID 1159580); details: S. cerevisiae deletion strains, growth OD, locus YLL026W, stronger effect = lower value
The campaign covered roughly 5,500 compounds. About 2,000 (36%) were called active. About 18% were inconclusive and are not listed. Some of the results follow.
Item-by-item account of normalized growth
Please state the value as a number alone, without comment.

COMPOUND	normalized growth
CN1CC(=O)N=C1N	1.02

Query: Record request: normalized growth value, item Cc1ccccc1C(OCCN(C)C)c1ccccc1 (configuration not stated)
Reply: 1.01

Query: Record request: normalized growth value, item COC(=O)C[C@H]1C2(C)CC34OC5(C)O[C@@]6([C@H](OC(C)=O)C(OC(C)=O)[C@]7(C)C(/C(=C(/O)C(C)C)C(=O)O[C@H]7c7ccoc7)[C@@]6(O5)[C@H](OC(C)=O)[C@@]3(O)C2OC(=O)C(C)C)[C@]14C (some centres not stated)
Reply: 0.987

Query: Record request: normalized growth value, item O=S(=O)(O)CCS
Reply: 1.01

Query: Record request: normalized growth value, item CCC(C)C(=O)O[C@@H]1C[C@@]2(C)[C@H](c3ccoc3)OC(=O)CC23OC2(C)OC34[C@H](OC(=O)C(C)C)[C@@]3(O)[C@@H](OC(=O)C5(C)OC5C)[C@@]5(C)C[C@]3(O)[C@@](C)([C@H]5CC(=O)OC)C14O2 (some centres not stated)
Reply: 1

Query: Record request: normalized growth value, item O=C(O)CCCc1ccccc1
Reply: 0.985

====

assay: chemical genetic growth profiling, strain panel (AID 1159580); conditions: S. cerevisiae deletion strains, growth OD, locus YOL012C, strain htz1
In all, about 5,500 compounds went through this assay and about 2,000 (36%) were called active. Another 18% or so got no clear call; they are omitted. The list shows a part of the results.
Binarize normalized growth at 0.7; below is Met, at or above is Not met.

MOLECULE	ASSIGNED_LABEL
CN(C)CCN(Cc1cccs1)c1ccccn1	Not met

Now examine the next entry.
Query: Would you kindly verify if normalized growth of O=C(O[C@@H]1Cc2c(O)cc(O)cc2O[C@@H]1c1ccc(O)c(O)c1)c1cc(O)c(O)c(O)c1 is strictly less than 0.7?
Reply: Met

====

Item-by-item account of normalized growth
assay: chemical genetic growth profiling, strain panel (AID 1159580);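 note: tested at 20 µM; growth read once vehicle control cultures reached saturation at 30 °C; 1 = growth at the plate median or of vehicle wells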; details: S. cerevisiae deletion strains, growth OD, locus YDR318W, strain mcm21, stronger effect = lower value
The whole screen tested about 5,500 compounds, of which about 2,000 (36%) were called active. Not shown: some 18% with an inconclusive outcome. Some of the results follow.
Please state the value as a number alone, without comment.

Here's what some known entries look like.
>>> df
                                   compound  measured_result
0  CCN1CCCC(OC(=O)C(c2ccccc2)c2ccccc2)C1 (stereo not drawn)             1.01
1  CN1C2CCC1CC(OC(c1ccccc1)c1ccccc1N)C2 (stereo not drawn)             1.01

Next, consider the following compound.
Query: Record request: normalized growth value, item COc1ccc(-c2coc3cc(O)ccc3c2=O)cc1
Reply: 0.896

====

Item-by-item account of normalized growth
experiment: chemical genetic growth profiling, strain panel (AID 1159580);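 note: tested at 20 µM; growth read once vehicle control cultures reached saturation at 30 °C; 1 = growth at the plate median or of vehicle wells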; conditions: S. cerevisiae strains, growth OD, strain wild type, stronger effect = lower value
Screen size: about 5,500 compounds; about 2,000 (36%) were called active. Not shown: some 18% with an inconclusive outcome. The list shows a part of the results.
Please state the value as a number alone, without comment.

Here's what some known entries look like.
                                   compound  measured_result
0  OCC(O)CN1CCN(c2ccccc2)CC1 (stereo unspecified)                1
1  C=C[C@@](C)(O)CCC1C(=C)CCC2[C@@](C)(CO)CCC[C@]12C (stereo partly specified)                1
2  CCN1CCCC(OC(=O)C(c2ccccc2)c2ccccc2)C1 (stereo unspecified)             1.01
3               S=c1nc2[nH]c3ccccc3c2n[nH]1            0.984
4                  Nc1nc(=S)c2[nH]cnc2[nH]1             1.01
5  COc1ccc2c(c1)OC1(O)COc3cc(OC)c(OC)cc3C1=C2 (stereo unspecified)            0.987
6  CC(C)NCC(O)COc1cccc2[nH]ccc12 (stereo unspecified)                1
7  CCCCCCC(C)OC(=O)COc1cc(Cl)c(Cl)cc1Cl (stereo unspecified)            0.999
8       CCCOc1ccccc1/C=N\NC(=S)Nc1cccc(F)c1                1
9  O=C(CCc1nc(-c2ccc(Cl)cc2)no1)NNS(=O)(=O)c1cc(Cl)c(Cl)cc1Cl                1

Next, consider the following compound.
Query: Record request: normalized growth value, item CN1CC(=O)N=C1N
Reply: 1.01

====

experiment: chemical genetic growth profiling, strain panel (AID 1159580);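 note: tested at 20 µM; growth read once vehicle control cultures reached saturation at 30 °C; 1 = growth at the plate median or of vehicle wells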; conditions: S. cerevisiae deletion strains, growth OD, locus YCL016C, strain dcc1, stronger effect = lower value
About 2,000 (36%) of roughly 5,500 compounds were called active. Not shown: some 18% with an inconclusive outcome. The list shows a part of the results.
RECORDED_ENDPOINT: normalized growth
Please state the value as a number alone, without comment.

COMPOUND	normalized growth
O=C(Oc1cc(O)cc2c1C[C@@H](OC(=O)c1cc(O)c(O)c(O)c1)[C@@H](c1cc(O)c(O)c(O)c1)O2)c1cc(O)c(O)c(O)c1	1.01
CC(=O)O[C@H]1C[C@@H](OC(C)=O)C(C)(C)C2CC(=O)[C@]3(C)C(CC[C@@]4(C)[C@H](C(=O)O)OC(=O)C5OC543)[C@]21C (some centres not stated)	0.974
C/C=C(\C)C(=O)O[C@H]1C[C@@H](OC(C)=O)[C@@]2(C(=O)OC)CO[C@@H]3C2[C@]12CO[C@](O)(C(=O)OC)[C@H]2[C@](C)(C12O[C@@]1(C)[C@H]1C[C@@H]2OC2OC=C[C@@]21O)[C@@H]3O (some centres not stated)	0.964
OCCc1ccccc1	0.994
O=C(O[C@@H]1Cc2c(O)cc(O)cc2O[C@@H]1c1ccc(O)c(O)c1)c1cc(O)c(O)c(O)c1	0.966
Nc1nc(=S)c2[nH]cnc2[nH]1	0.947

Query: Record request: normalized growth value, item O=C(Oc1cc(OC(=O)c2ccccc2)c2c(c1)O[C@H](c1ccc(OC(=O)c3ccccc3)c(OC(=O)c3ccccc3)c1)[C@@H](OC(=O)c1ccccc1)C2)c1ccccc1
Reply: 0.994

Query: Record request: normalized growth value, item CCN1CCCC(OC(=O)C(c2ccccc2)c2ccccc2)C1 (configuration not stated)
Reply: 0.973

Query: Record request: normalized growth value, item Cc1ccccc1C(OCCN(C)C)c1ccccc1 (configuration not stated)
Reply: 1.01
